The measurements presented in this section are drawn from ChEMBL document CHEMBL2016459.

- subject.of.test: Toll-like receptor 7 (Homo sapiens)
- Sequence (Q9NYK1 whole entry): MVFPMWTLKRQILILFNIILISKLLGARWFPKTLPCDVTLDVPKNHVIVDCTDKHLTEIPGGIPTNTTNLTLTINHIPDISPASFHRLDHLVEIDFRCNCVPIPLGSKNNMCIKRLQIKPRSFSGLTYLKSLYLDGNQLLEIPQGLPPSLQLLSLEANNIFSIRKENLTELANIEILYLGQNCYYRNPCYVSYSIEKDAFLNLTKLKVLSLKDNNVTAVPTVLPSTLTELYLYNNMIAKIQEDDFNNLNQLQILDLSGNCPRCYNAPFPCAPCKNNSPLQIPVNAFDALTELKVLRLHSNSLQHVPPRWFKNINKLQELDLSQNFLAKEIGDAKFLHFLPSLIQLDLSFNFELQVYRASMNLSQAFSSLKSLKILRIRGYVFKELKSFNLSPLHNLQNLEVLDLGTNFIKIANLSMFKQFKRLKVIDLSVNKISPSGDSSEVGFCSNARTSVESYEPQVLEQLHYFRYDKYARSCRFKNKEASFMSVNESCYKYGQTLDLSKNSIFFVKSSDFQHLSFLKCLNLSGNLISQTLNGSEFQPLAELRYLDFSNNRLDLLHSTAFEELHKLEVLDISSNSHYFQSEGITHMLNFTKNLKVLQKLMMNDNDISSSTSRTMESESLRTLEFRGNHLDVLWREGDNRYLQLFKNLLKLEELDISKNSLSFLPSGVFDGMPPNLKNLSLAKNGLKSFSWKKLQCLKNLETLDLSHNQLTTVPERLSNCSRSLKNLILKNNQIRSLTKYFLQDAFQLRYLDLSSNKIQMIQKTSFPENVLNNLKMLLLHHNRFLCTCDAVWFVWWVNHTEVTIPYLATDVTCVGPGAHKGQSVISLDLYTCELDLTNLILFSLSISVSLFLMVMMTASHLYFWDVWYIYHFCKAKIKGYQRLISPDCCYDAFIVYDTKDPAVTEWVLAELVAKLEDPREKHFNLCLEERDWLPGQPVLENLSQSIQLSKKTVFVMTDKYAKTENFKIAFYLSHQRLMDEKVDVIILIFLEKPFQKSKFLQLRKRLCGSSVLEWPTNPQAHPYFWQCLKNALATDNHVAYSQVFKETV
- protocol.text: Agonist activity at human TLR7 expressed in HEK-Blue cells assessed as increase in NFkappaB activation by sAP reporter gene assay
- Format: functional, cell-based
Answer each item with its documented EC50.
Give the quantity in nM, number only.

What value of EC50 has been recorded for this entry: `CCCCc1nc2c(N)nc3ccc(NC(=O)CCCCCCC(=O)Nc4ccc5nc(N)c6nc(CCCC)n(Cc7ccc(CN)cc7)c6c5c4)cc3c2n1Cc1ccc(CN)cc1` 4020

Report EC50 for `CCCCc1nc2c(N)nc3ccc(NC(=O)CCCCCCCCCCC(=O)Nc4ccc5nc(N)c6nc(CCCC)n(Cc7ccc(CN)cc7)c6c5c4)cc3c2n1Cc1ccc(CN)cc1` please. 5400

What EC50 value was documented for this molecule, `CCCCc1nc2c(N)nc3ccccc3c2n1Cc1ccc(CNC(=O)CCCCCCCCCCC(=O)NCc2ccc(Cn3c(CCCC)nc4c(N)nc5ccccc5c43)cc2)cc1` ? 170

Find the recorded EC50 belonging to `CCCCc1nc2c(N)nc3ccc(N)cc3c2n1Cc1ccc(CN)cc1` and report it. 450
